Sourced from patent US9957270B2

Target: HDAC6 (Homo sapiens)
Sequence (Q9UBN7 1-1215): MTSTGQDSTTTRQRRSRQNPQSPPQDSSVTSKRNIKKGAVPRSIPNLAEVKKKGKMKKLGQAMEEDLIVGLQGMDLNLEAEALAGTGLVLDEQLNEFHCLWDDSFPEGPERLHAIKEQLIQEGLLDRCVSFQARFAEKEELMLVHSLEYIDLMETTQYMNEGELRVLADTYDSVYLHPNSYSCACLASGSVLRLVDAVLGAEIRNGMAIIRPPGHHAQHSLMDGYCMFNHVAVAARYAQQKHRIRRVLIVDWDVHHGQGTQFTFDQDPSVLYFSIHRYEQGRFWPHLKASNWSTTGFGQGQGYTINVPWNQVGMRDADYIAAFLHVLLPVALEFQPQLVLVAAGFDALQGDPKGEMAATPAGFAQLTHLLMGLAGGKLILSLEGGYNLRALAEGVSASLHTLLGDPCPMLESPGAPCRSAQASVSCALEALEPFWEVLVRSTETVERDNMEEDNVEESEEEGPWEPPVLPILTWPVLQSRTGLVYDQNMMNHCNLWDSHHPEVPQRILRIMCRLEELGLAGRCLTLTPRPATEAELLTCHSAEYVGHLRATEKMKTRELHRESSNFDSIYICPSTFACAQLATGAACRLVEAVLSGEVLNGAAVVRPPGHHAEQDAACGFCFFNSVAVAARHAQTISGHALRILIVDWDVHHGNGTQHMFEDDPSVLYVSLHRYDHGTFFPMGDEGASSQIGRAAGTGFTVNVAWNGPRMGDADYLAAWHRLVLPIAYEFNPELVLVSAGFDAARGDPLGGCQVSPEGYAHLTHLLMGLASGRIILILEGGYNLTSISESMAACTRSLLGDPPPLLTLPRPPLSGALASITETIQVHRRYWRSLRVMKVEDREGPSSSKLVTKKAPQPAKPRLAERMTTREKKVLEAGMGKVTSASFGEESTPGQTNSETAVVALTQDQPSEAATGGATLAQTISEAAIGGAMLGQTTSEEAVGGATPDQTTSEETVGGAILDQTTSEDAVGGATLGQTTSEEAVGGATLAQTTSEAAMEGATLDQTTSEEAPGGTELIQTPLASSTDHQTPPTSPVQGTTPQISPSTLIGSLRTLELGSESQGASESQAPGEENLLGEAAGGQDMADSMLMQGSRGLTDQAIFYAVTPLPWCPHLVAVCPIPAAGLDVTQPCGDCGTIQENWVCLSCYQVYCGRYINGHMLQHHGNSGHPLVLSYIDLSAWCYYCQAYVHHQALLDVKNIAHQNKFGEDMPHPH
Test: HDAC enzyme assay, recombinant HDAC6
OBSERVED PROPERTY: IC50

Solved cases below.
1) O=C(CCCCCCn1cnc2c(N3CCOCC3)nc(-c3cn[nH]c3)nc21)NO [compound 51]    < 10 nM
2) CCn1c(CNCCCCCC(=O)NO)nc2c(N3CCOCC3)nc(-c3cnc(N)nc3)nc21 [compound 87]    100 to 1000 nM

Attention now turns to another entry.
Task: Given the molecule CC(C)n1cnc2c(N3CCOCC3)nc(-c3ccc(OCCCCCCC(=O)NO)cc3)nc21 [compound 81] , what is its reported IC50?
Output: < 10 nM

###

// reported IC50 for each item listed
test system: MOLT-4; assay: Anti-proliferative assay (cellular IC50), MOLT-4; settings: Homo sapiens, MOLT-4, read-out: In Vitro Cellular IC50 MOLT-4

Solved cases below.
1) CS(=O)(=O)N1CCN(Cc2cc3nc(-c4cccc5[nH]ncc45)nc(N4CCOCC4)c3s2)CC1 [GDC-0941, reference compound]    < 500 nM
2) CC(C)n1cnc2c(-c3cccc(OCCCC(=O)NO)c3)nc(N3CCOCC3)nc21    < 500 nM

Task: Given the compound CCn1c(CN(C)Cc2ccc(C(=O)NO)cc2)nc2c(N3CCOCC3)nc(-c3cnc(N)nc3)nc21 , what is its reported IC50?
Output: 500 to 2000 nM
